Values of IC50 for Stearoyl-CoA desaturase (Homo sapiens, UniProt O00767), collected from a number of published sources:

Query string: So what's the measured IC50 for this one? Cc1ccc(Cl)c(OC2CCN(C(=O)Nc3ccnn(C)c3=O)CC2)c1
Result string: 0.1 to 1 µM

Query string: So what's the measured IC50 for this one? Cn1nccc(NC(=O)C(=O)N2CCC(Oc3cc(C(F)(F)F)ccc3Cl)CC2)c1=O
Result string: 0.1 to 1 µM

Query string: So what's the measured IC50 for this one? Cn1cc(Cl)nc(N2CCC(Oc3cc(C(F)(F)F)ccc3Cl)CC2)c1=O
Result string: 0.1 to 0.3 µM

Query string: So what's the measured IC50 for this one? Cn1cc(Cl)nc(N2CCC(Oc3ccccc3C(F)(F)F)CC2)c1=O
Result string: 0.1 to 0.3 µM

Query string: So what's the measured IC50 for this one? Clc1ccccc1OC1CCN(c2nccnn2)CC1
Result string: 0.1 to 1 µM

Query string: So what's the measured IC50 for this one? Cn1nccc(NCC(=O)N2CCC(CNc3cc(C(F)(F)F)ccc3Cl)CC2)c1=O
Result string: 0.3 to 1 µM

Query string: So what's the measured IC50 for this one? Cn1nccc(NCC(=O)N2CCC(Oc3ccc(Cl)c(Cl)c3)CC2)c1=O
Result string: 0.3 to 1 µM

Query string: So what's the measured IC50 for this one? O=C(O)Cn1nnc(-c2cnc(N3CCC4(CC3)CN(c3cc(F)ccc3Cl)C4)s2)n1
Result string: 0.039 µM

Query string: So what's the measured IC50 for this one? O=C(CNc1ccnn(Cc2ccccc2)c1=O)N1CCC(Oc2ccccc2C(F)(F)F)CC1
Result string: 1 to 10 µM

Query string: So what's the measured IC50 for this one? CC1CN(c2nccnn2)CCC1Oc1cc(C(F)(F)F)ccc1Cl (stereo not drawn)
Result string: 0.1 to 1 µM

Query string: So what's the measured IC50 for this one? Cn1nccc(NC(=O)N2CCC(Oc3cc(F)ccc3C(F)(F)F)CC2)c1=O
Result string: 0.01 to 0.1 µM

Query string: So what's the measured IC50 for this one? Cn1nccc(NCC(=O)N2CCC(Oc3cc(F)cc(C(F)(F)F)c3)CC2)c1=O
Result string: 0.1 to 1 µM
